# Test system: CCRIS mutagenicity, Ames/micronucleus/aberration tests
# measurement.description: CCRIS mutagenicity studies
# experimental.parameters: Test System: AMES SALMONELLA TYPHIMURIUM; Strain/Indicator: TA98; Metabolic Activation: HAMSTER, LIVER, S-9; Method: PREINCUBATION (PRIVAL METHOD)
The source made the active and inactive calls. How the calls were made is not given here.
// one of active, inactive, no free text

Q: Kindly provide the recorded test outcome for the following molecule: Cc1ccc(S(=O)(=O)Oc2ccc(N=Nc3ccc(-c4ccc(N=Nc5c(S(=O)(=O)O)cc6cc(S(=O)(=O)O)ccc6c5O)cc4C)c(C)c3)cc2)cc1
A: inactive

Q: Kindly provide the recorded test outcome for the following molecule: Cc1cc(-c2ccc(N=Nc3cc(S(=O)(=O)O)c4ccccc4c3N)c(C)c2)ccc1N=Nc1cc(S(=O)(=O)O)c2ccccc2c1N
A: active

Q: Kindly provide the recorded test outcome for the following molecule: COc1cc(-c2ccc(N)c(OC)c2)ccc1N
A: inactive

Q: Kindly provide the recorded test outcome for the following molecule: O=C(O)C1=C/C(=N\Nc2ccc(-c3ccc(N=Nc4ccc(N/N=C5\C=CC(=O)C(C(=O)O)=C5)c5cc(S(=O)(=O)O)ccc45)cc3)cc2)C=CC1=O
A: active

Q: Kindly provide the recorded test outcome for the following molecule: COc1cc(-c2ccc(N/N=C3\C=Cc4c(S(=O)(=O)O)cc(S(=O)(=O)O)c(N)c4C3=O)c(OC)c2)ccc1N/N=C1/C=Cc2c(S(=O)(=O)O)cc(S(=O)(=O)O)c(N)c2C1=O
A: active

Q: Kindly provide the recorded test outcome for the following molecule: Nc1ccc2c(c1)C(=O)/C(=N/Nc1ccc(-c3ccc(N/N=C4\C=CC(=O)C(C(=O)O)=C4)cc3)cc1)C(S(=O)(=O)O)=C2
A: active

Q: Kindly provide the recorded test outcome for the following molecule: COc1cc(-c2ccc(N/N=C3/C(=O)c4c(N)cc(S(=O)(=O)O)cc4C=C3S(=O)(=O)O)c(OC)c2)ccc1N/N=C1/C(=O)c2c(N)cc(S(=O)(=O)O)cc2C=C1S(=O)(=O)O
A: active
